# Tested on: carrageenan induced edema
# Test Details: Anti-inflammatory activity, carrageenan induced rat paw edema
# Format: in vivo, Wistar rats
# Test Context: inhibition of edema, rats, after 3 h
Tick Satisfied if % Inhibition ± SEM After 3 h is 50% or greater. Tick Not satisfied if % Inhibition ± SEM After 3 h is less than 50%.

A selection of reference data follows.
Line Notation	Assayed Target	Class Label
Cc1ccc2nc(Cl)c(C=C3C=C(c4ccc5ccccc5c4)OC3=O)cc2c1	carrageenan induced edema	Not satisfied
O=C1OC(c2ccc3ccccc3c2)=CC1=Cc1cc2cc(Cl)ccc2nc1Cl	carrageenan induced edema	Not satisfied
O=C1NC(c2ccc3ccccc3c2)=CC1=Cc1cc2cc(Cl)ccc2nc1Cl	carrageenan induced edema	Satisfied
O=C1NC(c2ccc(-c3ccccc3)cc2)=CC1=Cc1cc2ccccc2nc1Cl	carrageenan induced edema	Not satisfied

Switching to the query record.
Decide: % Inhibition ± SEM After 3 h of O=C1C(=Cc2cc3ccccc3nc2Cl)C=C(c2ccc(-c3ccccc3)cc2)N1Cc1ccccc1 >= 50%?
Not satisfied

---

# Test system: Bacillus subtilis (MTCC 121)
Readout Label: MIC (µg/mL)
Could you give me the number in µg/mL? Just the number is fine.

Below, 5 molecules whose answers are already recorded.
Molecule	Readout Label	Recorded Result
OC(Cn1cncn1)(Cn1cncn1)c1ccc(F)cc1F [Standard-2, Fluconazole, reference compound]	MIC	6.25
Cc1ccc2nc(Cl)c(C=C3C=C(c4ccc(-c5ccccc5)cc4)NC3=O)cc2c1	MIC	12.5
Cc1ccc2nc(Cl)c(C=C3C=C(c4ccc(-c5ccccc5)cc4)OC3=O)cc2c1	MIC	50
Cc1ccc2nc(Cl)c(C=C3C=C(c4ccc(-c5ccccc5)cc4)N(Cc4ccccc4)C3=O)cc2c1	MIC	50
Cc1ccc2nc(Cl)c(C=C3C=C(c4ccc5ccccc5c4)NC3=O)cc2c1	MIC	12.5

Lab note: next molecule to report on.
Reported Bacillus subtilis (MTCC 121) MIC for item O=C1NC(c2ccc3ccccc3c2)=CC1=Cc1cc2ccccc2nc1Cl was 25

---

# Test system: acetic acid induced writhing
# Test Details: Peripheral analgesic activity, acetic acid induced writhing method
# Format: in vivo, Swiss Albino mice
# Test Context: mice, mean ± SEM
Peripheral analgesic activity (writhing test) No. of writhing reference

Field: example entries. Status: answers known.
Compound	Assayed Target	Recorded Result
O=C1OC(c2ccc(-c3ccccc3)cc2)=CC1=Cc1cc2cc([N+](=O)[O-])ccc2nc1Cl [Compound 5h]	acetic acid induced writhing	7.6 ± 2.3^∗∗
O=C1C(=Cc2cc3cc(Cl)ccc3nc2Cl)C=C(c2ccc(-c3ccccc3)cc2)N1Cc1ccccc1 [Compound 7f]	acetic acid induced writhing	12.8 ± 3.8^∗∗
O=C(O)Cc1ccccc1Nc1c(Cl)cccc1Cl [Diclofenac, diclofenac, reference compound]	acetic acid induced writhing	4.2 ± 1.0^∗∗
O=C1OC(c2ccc3ccccc3c2)=CC1=Cc1cc2cc([N+](=O)[O-])ccc2nc1Cl [Compound 5d]	acetic acid induced writhing	6.0 ± 2.2^∗∗
O=C1OC(c2ccc3ccccc3c2)=CC1=Cc1cc2cc(Cl)ccc2nc1Cl [Compound 5b]	acetic acid induced writhing	26.2 ± 4.1
O=C1C(=Cc2cc3cc([N+](=O)[O-])ccc3nc2Cl)C=C(c2ccc(-c3ccccc3)cc2)N1Cc1ccccc1 [Compound 7h]	acetic acid induced writhing	10.4 ± 3.7^∗∗
O=C1C(=Cc2cc3cc([N+](=O)[O-])ccc3nc2Cl)C=C(c2ccc3ccccc3c2)N1Cc1ccccc1 [Compound 7d]	acetic acid induced writhing	21.0 ± 10.0^∗
O=C1C(=Cc2cc3cc(Cl)ccc3nc2Cl)C=C(c2ccc3ccccc3c2)N1Cc1ccccc1 [Compound 7b]	acetic acid induced writhing	25.4 ± 4.8

Let us examine a further case.
Value of Peripheral analgesic activity (writhing test) No. of writhing reported for the compound O=C1NC(c2ccc3ccccc3c2)=CC1=Cc1cc2cc(Cl)ccc2nc1Cl [Compound 6b] is 13.8 ± 4.4^∗

Data provenance: paper PMC5094435
